# credit: paper PMC10222512

tested on: S37 murine sarcoma cell line; assay: Photoinduced (combined) cytotoxicity, MTT assay after irradiation; assay type: cell-based; conditions: S37 cells; 4 h PS incubation, irradiation at 10 J/cm^2, MTT after 24 h; read-out: IC50, Photoinduced cytotoxicity
pIC50: −log10 of the molar value.
Readout type: pIC50

• C=Cc1c(C)c2cc3nc(c4c5[nH]c(cc6nc(cc1[nH]2)C(C)=C6CC)c(C)c5C(=[S+][Pt-2]([NH3+])([NH3+])[Cl])C4)[C@@H](CCC(=O)OC)[C@@H]3C.O=[N+]([O-])[O-] (stereo partly shown) = 6.32

====

system: S37 murine sarcoma cell line; assay: Photoinduced (combined) cytotoxicity, MTT assay after irradiation; type: cell-based; conditions: S37 cells; 4 h PS incubation, irradiation at 10 J/cm^2, MTT after 48 h; read-out: IC50, Combined cytotoxicity
Readout type: IC50 (µM)

• C=Cc1c(C)c2cc3nc(c4c5[nH]c(cc6nc(cc1[nH]2)C(C)=C6CC)c(C)c5C(=[S+][Pt-2]([NH3+])([NH3+])[Cl])C4)[C@@H](CCC(=O)OC)[C@@H]3C.O=[N+]([O-])[O-] (stereo partly shown) [Compound 7] = 0.146
